Origin of measurements: patent US20260207623A1

experiment: Phase 1 pharmacokinetic study of a single oral dose of 20 mg E4 monohydrate in female subjects with normal hepatic function and mild, moderate or severe hepatic impairment (plasma, LC-MS/MS, non-compartmental analysis); format: in vivo, human; conditions: female, human, plasma, po, 20 mg, Moderate hepatic impairment; single oral dose 20 mg E4 monohydrate; plasma; read-out: AUC0-24 h, Mean
test.readout: AUC(0-t) (µg·h/mL)

smiles.data | value.unit | val
C[C@]12CC[C@@H]3c4ccc(O)cc4CC[C@H]3[C@@H]1[C@@H](O)[C@@H](O)[C@@H]2O | µg·h/mL | 0.103

====

assay: Phase 1 pharmacokinetic study of a single oral dose of 20 mg E4 monohydrate in female subjects with normal hepatic function and mild, moderate or severe hepatic impairment (plasma, LC-MS/MS, non-compartmental analysis); format: in vivo, human; conditions: female, human, plasma, po, 20 mg, Normal hepatic function; single oral dose 20 mg E4 monohydrate; plasma; read-out: T1/2, Mean (converted)

smiles.data | half-life / min
C[C@]12CC[C@@H]3c4ccc(O)cc4CC[C@H]3[C@@H]1[C@@H](O)[C@@H](O)[C@@H]2O | 1340
